B1: TMEM192 (parent)
chain: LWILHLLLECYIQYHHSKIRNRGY

# Variants of: B1
# experimental details: protein stability index of a GFP-peptide fusion (GPS, HEK-293T) (PSI 1-6); higher = more stable;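 also: lentivirally expressed fusions sorted by FACS into six bins by GFP to DsRed ratio, PSI derived from sequencing read proportions per bin multiplied by bin number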
# condition info: c terminus: a fixed tail appended
Please enter true (1) where protein stability index is greater than or equal to 3, and false (0) where it is lower.

> print(dat)
    mutant.code  assigned.label
 1         I19H       false (0)
 2         C10L        true (1)
 3         Q13S       false (0)
 4         S17C       false (0)
 5         S17V       false (0)
 6          L7H       false (0)
 7         H16L       false (0)
 8         I19K       false (0)
 9          L1Q        true (1)
10          L4F       false (0)
11         Y11G        true (1)
12         R20S       false (0)
13         S17N       false (0)
14         G23V        true (1)
15         S17Y        true (1)

The measured values listed here are drawn from the supplement of paper PMC10567573.
